tested on: Escherichia coli TOP10; test: shrunken log2 fold change of peptide-encoding DNA abundance (4.5 h post-induction vs induction); higher = less antimicrobial activity (less host growth inhibition); settings: time post-induction: 4.5 h; library: site-saturation at positions 5, 18, 19, 20;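 also: peptides expressed intracellularly from a pBAD plasmid library in pooled LB shake-flask culture, induced with 0.3% L-arabinose, DNA abundance read by NGS, three biological replicates, DESeq2 with apeglm shrinkage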
Readings of shrunken log2 fold change for the listed sequences

# sequence chain, shrunken log2 fold change
data = [
    ("RRIRRRPPRLPRPRPRPGRWPRP", 0.591),
    ("RRIRGRPPRLPRPRPRPDYHPRP", -0.139),
    ("RRIRPRPPRLPRPRPRPKKFPRP", 0.0281),
    ("RRIRARPPRLPRPRPRPYAYPRP", 0.104),
    ("RRIRARPPRLPRPRPRPVHCPRP", 0.0301),
    ("RRIRRRPPRLPRPRPRPPLYPRP", 0.851),
    ("RRIRMRPPRLPRPRPRPPDSPRP", 0.198),
    ("RRIRHRPPRLPRPRPRPACNPRP", -0.155),
    ("RRIRRRPPRLPRPRPRPWQSPRP", -0.0153),
    ("RRIRMRPPRLPRPRPRPDSWPRP", 1.59),
    ("RRIRARPPRLPRPRPRPICNPRP", 0.176),
    ("RRIRSRPPRLPRPRPRPHLTPRP", -0.0599),
    ("RRIRDRPPRLPRPRPRPHYTPRP", -0.73),
    ("RRIRMRPPRLPRPRPRPLVEPRP", 2.17),
    ("RRIRYRPPRLPRPRPRPHIDPRP", -1.95),
]
